- Test system: HOP-92 NSCLC
- Procedure Summary: NCI tumour cell line growth inhibition, 48 h

>  <Molecule>
O=c1[nH]c(Nc2ccc(Cl)cc2)nc2nc[nH]c12

>  <Assay Target>
HOP-92 NSCLC

>  <TGI>
> 100 µM

$$$$
>  <Molecule>
Cc1cc(C)n(C(=O)c2nn(-c3ccc(Cl)cc3)cc2O)n1

>  <Assay Target>
HOP-92 NSCLC

>  <TGI>
> 100 µM

$$$$
>  <Molecule>
COC1CC(CC2CCC(C)C(C(C)C(=O)O)O2)OC2(OC(C)(C3CCC(C)(C4OC(C5OC(O)(CO)C(C)CC5C)CC4C)O3)CC2C)C1C (stereo unspecified)

>  <Assay Target>
HOP-92 NSCLC

>  <TGI>
16.4 µM

$$$$
>  <Molecule>
COC(=O)c1nc(-c2nc(CCNC(=O)OC(C)(C)C)sc2Cl)sc1Cl

>  <Assay Target>
HOP-92 NSCLC

>  <TGI>
67.2 µM

$$$$
>  <Molecule>
C[N+](C)(C)CC(=O)N/N=C(/CC1OC(=O)c2ccccc21)c1ccccc1O (stereo unspecified)

>  <Assay Target>
HOP-92 NSCLC

>  <TGI>
87.6 µM

$$$$
>  <Molecule>
Cc1ccc2c(c1)O/C(=C\c1ccc([N+](=O)[O-])o1)C2=O

>  <Assay Target>
HOP-92 NSCLC

>  <TGI>
2.76 µM

$$$$

###

- System: UACC-62 melanoma
- Procedure Summary: NCI tumour cell line growth inhibition, 48 h

>  <Compound>
N#C/C(N)=C(\C#N)N=Cc1csc2ccccc12

>  <TGI>
> 100 µM

$$$$
>  <Compound>
O=C(Nc1ccc(Cl)cc1)c1cc(S(=O)(=O)Nc2nnc(-c3ccccc3)c(-c3ccccc3)n2)c(SCc2ccccc2)cc1Cl

>  <TGI>
39.7 µM

$$$$
>  <Compound>
COC(=O)C1=C(O)CCCC(CCC(C)=O)=C1

>  <TGI>
> 100 µM

$$$$
>  <Compound>
COC(=O)c1ccccc1NC(=O)C(=O)CC(=O)CC(c1ccccc1)c1c(O)c2ccccc2oc1=O (stereo not given)

>  <TGI>
> 100 µM

$$$$
>  <Compound>
Nc1ccc2ccc(NS(=O)(=O)N3CCCCC3)cc2c1

>  <TGI>
> 100 µM

$$$$
>  <Compound>
Cc1sc(N)c(S(=O)(=O)c2ccccc2)c1C

>  <TGI>
> 100 µM

$$$$
>  <Compound>
OCC#Cc1ccccc1C#Cc1ccc(C#Cc2ccccc2C#CCO)s1

>  <TGI>
43.4 µM

$$$$
>  <Compound>
COc1ccc(-c2nnc(N3CCN(C(=O)CN4CCN(c5ccc(Cl)cc5)CC4)CC3)nc2-c2ccc(OC)cc2)cc1

>  <TGI>
> 100 µM

$$$$
>  <Compound>
CC1CCP(=O)(c2ccccc2)CC1 (stereo not given)

>  <TGI>
> 100 µM

$$$$
>  <Compound>
COC(=O)c1ccccc1C1CN=NC12Cc1cc(C)c(C)cc1C2=O (stereo not given)

>  <TGI>
> 100 µM

$$$$
>  <Compound>
C/C1=C/C(=O)O[C@@H]2C[C@@H](CC[C@H](C)/C=C\C=C\CC1)O[C@@](OCCc1ccccc1)([C@@H]1CSC(=O)N1)C2

>  <TGI>
> 17.5 µM

$$$$
>  <Compound>
COc1ccc(C(=O)COc2cccc(/C=C3\CSc4ccc(Cl)cc4C3=O)c2)cc1

>  <TGI>
21 µM

$$$$
>  <Compound>
COC(=O)NC(=O)c1cn(CCCOC(=O)CCCCCCCCC(=O)OCCCn2cc(C(=O)NC(=O)OC)c(=O)[nH]c2=O)c(=O)[nH]c1=O

>  <TGI>
> 100 µM

$$$$
>  <Compound>
CC1CN=C(NS(=O)(=O)c2cc(C(=O)Nc3ccc(F)cc3)c(Cl)cc2S)NN1 (stereo not given)

>  <TGI>
> 100 µM

$$$$
>  <Compound>
COc1cc(-c2cc(/C=C3\C(=O)Nc4ccccc43)[nH]n2)cc(OC)c1OC

>  <TGI>
4.22 µM

$$$$
